ASSAY_METHOD_TEXT: Inhibition of alpha glucosidase (unknown origin) using p-nitrophenyl alpha-D-glucopyranoside as substrate pretreated for 15 mins followed by substrate addition after 30 mins by spectrophotometric method
Design: species or system Homo sapiens
Rule for this label: label 1 means IC50 is less than 60 µM; label 0 means IC50 is at least 60 µM.

These solved cases illustrate the format of a correct answer.
MOLECULE	QUALITATIVE_LABEL
O=c1c(/C=N/Nc2cccc(Cl)c2)coc2ccccc12	label 0
Nc1ccc(C(=O)N/N=C/c2coc3cc(O)ccc3c2=O)cc1	label 1
NS(=O)(=O)c1ccc(N/N=C/c2coc3cc(O)ccc3c2=O)cc1	label 1
O=C(N/N=C/c1coc2cc(O)ccc2c1=O)c1ccc(O)cc1	label 0

Q: Lab note: confirm whether the reported IC50 for this compound is below 60 µM, equality not counting. compound: NS(=O)(=O)c1ccc(N/N=C/c2coc3ccccc3c2=O)cc1
Ans: label 1
